The reported numbers originate from ChEMBL document CHEMBL4371074.

Biological target: UniProt:P05981
Experiment: Inhibition of hepsin (unknown origin) expressed in MCF10A cells preincubated for 30 mins followed by Boc-QRR-AMC substrate addition and measured for 1 hr by fluorescence assay

{"smiles structure": "N=C(N)NCCC[C@H](NC(=O)CNC(=O)OCC1c2ccccc2-c2ccccc21)C(=O)c1nc2ccccc2s1", "target or test system": "UniProt:P05981", "IC50": "> 10 µM"}

----------
Parameter Ki: see the listing below.
Target: Serine protease hepsin (Homo sapiens, UniProt P05981)
Test: Inhibition of recombinant human C-terminal His10-tagged hepsin catalytic domain preincubated for 30 mins followed by Boc-QAR-AMC substrate addition and measured for 1 hr by fluorescence assay
Settings: read-out: Ki(app)
property: Ki

{"smiles structure": "N=C(N)NCCC[C@H](NC(=O)[C@H](Cc1cnc[nH]1)NC(=O)OCC1c2ccccc2-c2ccccc21)C(=O)c1nc2ccccc2s1", "property": "Ki", "obs value": "226 nM"}
{"smiles structure": "N=C(N)NCCC[C@H](NC(=O)OCC1c2ccccc2-c2ccccc21)C(=O)N[C@@H](CCCNC(=N)N)C(=O)c1nc2ccccc2s1", "property": "Ki", "obs value": "102 nM"}
{"smiles structure": "N=C(N)NCCC[C@H](NC(=O)[C@H](Cc1ccc(O)cc1)NC(=O)OCC1c2ccccc2-c2ccccc21)C(=O)c1nc2ccccc2s1", "property": "Ki", "obs value": "256 nM"}
{"smiles structure": "C[C@H](NC(=O)OCC1c2ccccc2-c2ccccc21)C(=O)N[C@@H](CCCNC(=N)N)C(=O)c1nc2ccccc2s1", "property": "Ki", "obs value": "240 nM"}
